Assay: Solubility of Compound 12 in common solvents (Table 5)
Format: physicochemical
Conditions: organic solvent or mixture; solvent MIBK
measure: solubility

Using the record for CC(C)c1ccc(N(C)c2ccc3c(c2)OCC[C@H]3CNC(=O)OC(C)(C)C)cc1 , report its solubility.
17 mg/mL

----------
Test: Solubility of Compound 12 in common solvents (Table 5)
Format: physicochemical
Settings: organic solvent or mixture; solvent EtOAc
measure: solubility (mg/mL)
Kindly answer with a numeric value in mg/mL, unit omitted.

Given the compound CC(C)c1ccc(N(C)c2ccc3c(c2)OCC[C@H]3CNC(=O)OC(C)(C)C)cc1 , what is its reported solubility?
22

----------
Test: Solubility of Compound 12 in common solvents (Table 5)
Format: physicochemical
Conditions: organic solvent or mixture; solvent CPMe
measure: solubility (mg/mL)
Numbers only here, please. The scale is mg/mL.

So what does the record say about solubility for CC(C)c1ccc(N(C)c2ccc3c(c2)OCC[C@H]3CNC(=O)OC(C)(C)C)cc1 [Compound 12] ?
26

----------
Experiment: Solubility of Compound 12 in common solvents (Table 5)
Format: physicochemical
Conditions: organic solvent or mixture; solvent MeCN
measure: solubility (µg/mL)
Form entry: value (µg/mL) — number only.

Look up solubility for this molecule: CC(C)c1ccc(N(C)c2ccc3c(c2)OCC[C@H]3CNC(=O)OC(C)(C)C)cc1
5000

----------
Test: Solubility of Compound 12 in common solvents (Table 5)
Assay type: physicochemical
Conditions: organic solvent or mixture; solvent THF
measure: solubility

Need solubility of CC(C)c1ccc(N(C)c2ccc3c(c2)OCC[C@H]3CNC(=O)OC(C)(C)C)cc1 [Compound 12] , thanks.
≥ 150 mg/mL

----------
Test: Solubility of Compound 12 in common solvents (Table 5)
Type: physicochemical
Details: organic solvent or mixture; solvent MEK
measure: solubility
The reply should read as a number followed by its unit.

Consider the molecule CC(C)c1ccc(N(C)c2ccc3c(c2)OCC[C@H]3CNC(=O)OC(C)(C)C)cc1 and give its measured solubility.
28 mg/mL

----------
Test: Solubility of Compound 12 in common solvents (Table 5)
Format: physicochemical
Conditions: organic solvent or mixture; solvent DMAc
Description: The crystallization of Compound 12 also required optimization. Studies were undertaken to find the optimal solvent system of iPrOH/MeTHF.
measure: solubility (mg/mL)
Provide only the numeric value, understood in mg/mL.

solubility for CC(C)c1ccc(N(C)c2ccc3c(c2)OCC[C@H]3CNC(=O)OC(C)(C)C)cc1 ?
77

----------
Assay: Solubility of Compound 12 in common solvents (Table 5)
Type: physicochemical
Conditions: organic solvent or mixture; solvent toluene
measure: solubility (mg/mL)
Answer with a number only, understood to be in mg/mL.

Entry CC(C)c1ccc(N(C)c2ccc3c(c2)OCC[C@H]3CNC(=O)OC(C)(C)C)cc1 : reported solubility = ?
27

----------
Test: Solubility of Compound 12 in common solvents (Table 5)
Type: physicochemical
Conditions: organic solvent or mixture; solvent HOAC
measure: solubility (mg/mL)
Write down the numeric answer in mg/mL and omit the unit.

I'd like to know its solubility. The compound in question is CC(C)c1ccc(N(C)c2ccc3c(c2)OCC[C@H]3CNC(=O)OC(C)(C)C)cc1
20

----------
Assay: Solubility of Compound 12 in common solvents (Table 5)
Type: physicochemical
Conditions: organic solvent or mixture; solvent IPAc
measure: solubility (mg/mL)
Reply numerically in mg/mL, unit not repeated.

I would be grateful if you could share the reported solubility for CC(C)c1ccc(N(C)c2ccc3c(c2)OCC[C@H]3CNC(=O)OC(C)(C)C)cc1 .
14

----------
Assay: Solubility of Compound 12 in common solvents (Table 5)
Assay type: physicochemical
Conditions: organic solvent or mixture; solvent 1-PrOH
measure: solubility (µg/mL)
Expressed in µg/mL, but write only the number.

Find the recorded solubility belonging to CC(C)c1ccc(N(C)c2ccc3c(c2)OCC[C@H]3CNC(=O)OC(C)(C)C)cc1 and report it.
5000
